For each record, write down the corresponding IC50.
System: LN-229 (glioblastoma)
Test: Antitumoral assay (MTS, 72 h), LN-229
Conditions: Homo sapiens, LN-229, 72 h, read-out: Cytotoxicity IC50, LN229
Give just the numeric value; µM need not be written.

Lab book: IC50 of C/C(=C/CC[C@H](C)[C@@H]1CC[C@]2(C)C3=C(CC[C@@]12C)[C@@]1(C)CC(SC#N)C(=O)C(C)(C)C1CC3)C(=O)O (mixture of isomers) noted as 23.3

Lab book: IC50 of C/C(=C/CC[C@H](C)[C@@H]1CC[C@]2(C)C3=C(CC[C@@]12C)[C@@]1(C)CC(Br)C(=O)C(C)(C)C1CC3)C(=O)O (mixture of isomers) noted as 28.5

Lab book: IC50 of C/C(=C/CC[C@H](C)[C@@H]1CC[C@]2(C)C3=C(CC[C@@]12C)[C@@]1(C)Cc2sc(N)nc2C(C)(C)[C@@H]1CC3)C(=O)O noted as 27.9

Lab book: IC50 of COc1cc([C@@H]2c3cc4c(cc3[C@@H](O[C@@H]3O[C@@H]5CO[C@@H](C)O[C@H]5[C@H](O)[C@H]3O)[C@H]3COC(=O)[C@H]23)OCO4)cc(OC)c1O [Etoposide, reference compound] noted as 4.8
